Biological target: UniProtKB Q9GZR1
Sequence (Q9GZR1 whole entry): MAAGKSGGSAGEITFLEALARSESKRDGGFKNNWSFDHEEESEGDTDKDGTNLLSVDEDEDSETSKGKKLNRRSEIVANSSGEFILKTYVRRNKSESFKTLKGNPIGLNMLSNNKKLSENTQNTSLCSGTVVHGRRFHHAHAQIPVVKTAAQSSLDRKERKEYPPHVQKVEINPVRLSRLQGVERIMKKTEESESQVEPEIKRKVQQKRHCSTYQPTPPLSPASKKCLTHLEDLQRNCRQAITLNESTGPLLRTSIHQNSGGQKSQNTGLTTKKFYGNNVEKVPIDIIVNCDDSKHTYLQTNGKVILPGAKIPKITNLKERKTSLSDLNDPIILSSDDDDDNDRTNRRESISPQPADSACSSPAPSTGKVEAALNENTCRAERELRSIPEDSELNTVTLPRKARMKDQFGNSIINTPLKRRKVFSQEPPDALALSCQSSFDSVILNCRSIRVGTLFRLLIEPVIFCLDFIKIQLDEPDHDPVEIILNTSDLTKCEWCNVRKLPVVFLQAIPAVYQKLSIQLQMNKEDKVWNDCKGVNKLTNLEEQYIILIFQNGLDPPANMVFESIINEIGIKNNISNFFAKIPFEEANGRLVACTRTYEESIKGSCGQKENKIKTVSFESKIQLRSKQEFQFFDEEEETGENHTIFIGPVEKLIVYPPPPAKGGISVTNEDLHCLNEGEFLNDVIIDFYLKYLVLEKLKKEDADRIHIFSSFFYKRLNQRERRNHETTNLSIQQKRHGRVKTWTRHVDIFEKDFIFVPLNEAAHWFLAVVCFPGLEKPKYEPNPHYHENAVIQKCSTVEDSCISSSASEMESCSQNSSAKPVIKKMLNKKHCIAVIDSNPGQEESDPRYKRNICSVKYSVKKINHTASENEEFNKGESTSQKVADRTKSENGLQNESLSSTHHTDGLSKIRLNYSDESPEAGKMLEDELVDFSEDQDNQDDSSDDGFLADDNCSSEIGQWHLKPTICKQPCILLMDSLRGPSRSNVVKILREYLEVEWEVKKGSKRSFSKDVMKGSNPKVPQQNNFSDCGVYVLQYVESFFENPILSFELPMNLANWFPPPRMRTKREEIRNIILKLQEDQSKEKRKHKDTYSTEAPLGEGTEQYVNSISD
Format: functional
Active and inactive are the calls of the source.
Catalogue of IC50 readings, one per entry.

Solved entries:
{"columns": ["molecule", "target of assay", "measured parameter", "recorded result"],
 "data": [
  ["N=c1oc2ccccc2cc1C(=O)Nc1ccccc1", "UniProtKB Q9GZR1", "IC50", "15.6 µM (active)"],
  ["Cc1ccc(Oc2cc(-n3nc(C)cc3C)ncn2)cc1", "UniProtKB Q9GZR1", "IC50", "35.7 µM (active)"]
]}

Give me measured IC50, please, for this molecule: c1ccc(-c2nc(C3CCCCC3)no2)cc1
66.3 µM (active)

Indicate the recorded IC50 value for this molecule: Cc1cc([N+](=O)[O-])cc(/C=N\NC(=O)C2COc3ccccc3O2)c1O (configuration not stated)
28.4 µM (active)

----------
List of EC50 values.
System: Streptococcus sp. 'group A'
Test: Streptococcus pyogenes SK(-)GAS viability under kanamycin – luminescence, BacTiterGlo, confirmation, counter-screen for streptokinase expression inhibitor project, dose response (AID 1900)
Format: functional, organism-based
Activity calls are given as the source filed them.

Previously resolved entries follow.
{"columns": ["compound", "recorded result"],
 "data": [
  ["CC1=Nc2ccccc2/C1=C\\c1nc(-c2ccc(F)cc2)oc1O", "8.82 µM (active)"],
  ["O=[N+]([O-])c1cccnc1N1CCC(c2cc(-c3ccc(Cl)cc3)[nH]n2)CC1", "5.14 µM (active)"],
  ["CCSc1nnc2nc3c(c(O)n12)C1(CCCC1)Cc1ccccc1-3", "8.43 µM (active)"],
  ["CCc1ccc2c(c1)C1(NN=C(c3cccc4ccccc34)S1)C(=O)N2 (stereo not given)", "< 0.06 µM (active)"]
]}

API: the following record is the query input.
Tell me its EC50 given O=C(NCc1nnc(SCC(=O)N2CCOCC2)o1)c1c(F)cccc1F as the entry.
> 150 µM (not active)

----------
Assay: Trypanosoma cruzi growth suppression in host cells – NIH3T3 host cells, beta-gal luminescence, confirmation (AID 2044);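 also: intracellular parasites grown in NIH/3T3 mouse fibroblasts as host cells; luminescent beta-galactosidase reporter signal from transgenic T. cruzi replicating inside host cells; inhibitors lower the luminescence signal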
Type: functional, cell-based
Calls of active or inactive are those of the source.
Reported EC50 values for the following molecules.

Examples from the recorded data:
{"columns": ["molecule", "EC50"],
 "data": [
  ["CCn1cc(C(=O)NCc2ccc3c(c2)OCO3)c(=O)c2cc(F)c(N3CCN(C)CC3)cc21", "1.16 µM (active)"],
  ["CN(C)CCCNc1c2c(nc3cc(-c4cccc(F)c4)nn13)CCC2", "0.181 µM (active)"],
  ["Cc1ccc(NC(=O)N(Cc2ccco2)Cc2cc3cc(C)cc(C)c3nc2Cl)cc1", "2.78 µM (active)"],
  ["O=[N+]([O-])c1cc([N+](=O)[O-])c2[nH]nc(-c3ccccc3)c2c1", "1.47 µM (active)"],
  ["N#CC1=C(N)Oc2c(c(=O)sc3ccccc23)C1c1cccnc1 (configuration not stated)", "0.536 µM (active)"]
]}

Give reported EC50 value for CCOc1ccc(CN2CCN(Cc3nc(C(C)C)cs3)CC2CCO)cc1 (configuration not stated)
0.845 µM (active)

Return EC50 (reported value) for this molecule: COc1ccccc1NS(=O)(=O)c1cc(NC(=O)c2cccs2)ccc1N1CCCCC1
1.23 µM (active)

----------
For UniProt P05177, measured AC50 is reported for the entries below.
Sequence (P05177 whole entry): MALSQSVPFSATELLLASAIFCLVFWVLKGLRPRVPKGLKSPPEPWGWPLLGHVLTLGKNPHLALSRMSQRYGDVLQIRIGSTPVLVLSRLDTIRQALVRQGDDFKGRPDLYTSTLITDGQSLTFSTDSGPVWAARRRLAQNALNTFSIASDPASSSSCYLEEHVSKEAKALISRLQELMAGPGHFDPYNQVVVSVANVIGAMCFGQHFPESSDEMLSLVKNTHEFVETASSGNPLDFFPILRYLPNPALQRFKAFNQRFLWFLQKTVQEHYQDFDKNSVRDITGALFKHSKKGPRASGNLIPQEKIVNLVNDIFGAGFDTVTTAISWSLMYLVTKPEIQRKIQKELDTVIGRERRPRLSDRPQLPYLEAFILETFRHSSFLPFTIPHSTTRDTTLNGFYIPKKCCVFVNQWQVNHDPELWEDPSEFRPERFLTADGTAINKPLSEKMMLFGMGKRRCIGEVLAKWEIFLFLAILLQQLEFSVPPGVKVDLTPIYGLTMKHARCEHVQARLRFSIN

Illustrative cases are given below, each with its answer.
{"columns": ["compound", "AC50"],
 "data": [
  ["CC(C)NC(=O)N1CCCC2(CCN(C(=O)Oc3ccccc3)CC2)C1", "12.6 µM (inconclusive)"],
  ["COc1cc(N)c(Cl)cc1C(=O)NC1CCN(Cc2ccccc2)CC1 [CLEBOPRIDE]", "12.6 µM (inconclusive)"],
  ["COc1ncc2nc(-c3cccc(C#N)c3)c(=O)n(CCC#N)c2n1", "20 µM (inconclusive)"],
  ["N[C@@H](CSS(=O)(=O)O)C(=O)O", "39.8 µM (inconclusive)"]
]}

Now examine the next entry.
// fetch AC50; item: CCNc1nc(Oc2c(Cl)cccc2Cl)cc(C(F)(F)F)n1 ; system: UniProt P05177
14.1 µM (inconclusive)

----------
Test: cells
Assay type: functional
Calls of active or inactive are those of the source.
measured parameter: IC50

Known IC50 results, listed for orientation:
{"columns": ["compound", "measured parameter", "recorded result"],
 "data": [
  ["COc1ccc2nc(C)cc(N/N=C/c3ccccc3)c2c1", "IC50", "0.52 µM (active)"],
  ["CCOCCOC(=O)c1ccc(NC(=O)C2COc3ccccc3O2)cc1 (stereo unspecified)", "IC50", "15.2 µM (active)"],
  ["Cc1n[nH]c(C)c1CCOc1ccc(C(C)C)cc1", "IC50", "12.2 µM (active)"]
]}

Specify reported IC50 for the compound shown: N#CC(C#N)=c1ccc2c(c1)NC1(CCCCC1)N=2
10.7 µM (active)

Using known records, supply IC50 for CCCOc1ccc(-c2nc(C#N)c(NCCCn3ccnc3)o2)cc1
22.4 µM (active)

Retrieve IC50 measured for CC(Oc1ccc(Cl)cc1)C(=O)NNC(=S)NC(=O)c1ccco1 (stereo unspecified) and print it.
9.22 µM (active)

----------
Biological target: Replicative DNA helicase DnaB (Mycobacterium tuberculosis)
Assay: DnaB intein splicing inhibitors, dose response, biochemical, cell-free fluorescence (AID 449749)
Type: functional
Active and inactive are the calls of the source.
Select the correct class. Options are y for active, n for inactive and nothing else.

Study these solved cases before continuing.
{"columns": ["molecule", "label value"],
 "data": [
  ["CCc1ccc(S(=O)(=O)/N=C2\\C=C(Nc3ccc(O)cc3)C(=O)c3ccccc32)cc1", "y"],
  ["CC(C)(C)c1cc[n+](C2=C([N-]S(=O)(=O)c3cccs3)C(=O)c3ccccc3C2=O)cc1", "y"],
  ["C/C(=C\\c1ccco1)C1C(C#N)=C(N)Oc2[nH]nc(-c3ccccc3)c21 (centres undefined)", "y"],
  ["O=C1/C(=C\\c2cccc(O)c2O)SC(=S)N1Cc1ccccc1", "n"]
]}

Test call, this molecule: O=[N+]([O-])c1cc(S(=O)(=O)C(F)(F)F)ccc1Sc1nc2ccccc2s1
y

Assay result, entry COc1ccc(-c2cc(=O)[nH][nH]2)cc1OC — outcome?
y

Which outcome was assigned to N#C/C(=C\c1cc(Cl)c(OCc2ccc(Cl)cc2)c(Cl)c1)C(N)=O in this test?
n

Lab log entry: O=C(CCl)/N=c1\sccn1Cc1ccc(Cl)cc1Cl — outcome as called in the assay?
y

----------
Molecular target: High affinity choline transporter 1 (Homo sapiens)
Sequence (Q9GZV3 whole entry): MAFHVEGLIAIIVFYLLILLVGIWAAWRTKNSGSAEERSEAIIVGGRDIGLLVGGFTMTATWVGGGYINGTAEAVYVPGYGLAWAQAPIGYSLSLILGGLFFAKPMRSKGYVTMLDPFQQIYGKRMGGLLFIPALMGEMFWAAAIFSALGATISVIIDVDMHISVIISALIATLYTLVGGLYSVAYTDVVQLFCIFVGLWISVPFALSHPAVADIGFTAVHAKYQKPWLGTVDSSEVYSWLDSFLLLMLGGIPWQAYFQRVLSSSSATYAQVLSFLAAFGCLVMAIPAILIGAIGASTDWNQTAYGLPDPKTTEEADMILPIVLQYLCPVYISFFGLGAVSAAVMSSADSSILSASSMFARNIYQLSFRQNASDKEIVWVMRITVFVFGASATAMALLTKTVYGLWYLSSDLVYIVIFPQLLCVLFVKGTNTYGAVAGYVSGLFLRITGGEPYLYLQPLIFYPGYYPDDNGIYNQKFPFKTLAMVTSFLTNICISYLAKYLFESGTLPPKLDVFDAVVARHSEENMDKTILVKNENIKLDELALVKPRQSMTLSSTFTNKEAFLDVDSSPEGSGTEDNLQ
Experiment: human choline transporter blockers, potency – cell-based, 5-point CRC, membrane potential dye, dose response (AID 504840)
Format: functional
Activity calls are given as the source filed them.
measured parameter: IC50

{"columns": ["molecule", "target of assay", "IC50"],
 "data": [
  ["CCCNc1nc2c(c(=O)n(C)c(=O)n2C)n1CCC(C)C", "High affinity choline transporter 1 (Homo sapiens)", "6.03 µM (active)"],
  ["CNc1oc(Cc2cccc3ccccc23)nc1C#N", "High affinity choline transporter 1 (Homo sapiens)", "12.6 µM (active)"],
  ["CC(Oc1ccccc1Cl)C(=O)Nc1ccc(S(=O)(=O)Nc2nccs2)cc1 (stereo unspecified)", "High affinity choline transporter 1 (Homo sapiens)", "5.01 µM (active)"],
  ["CCCn1nc(NS(=O)(=O)c2cccc3nonc23)c2cc3cccc(C)c3nc21", "High affinity choline transporter 1 (Homo sapiens)", "3.54 µM (active)"],
  ["CCOc1ccccc1/C=C/C(=O)NCC(=O)N1CCC(N(C)C2CCCCC2C)CC1 (stereo unspecified)", "High affinity choline transporter 1 (Homo sapiens)", "14.8 µM (active)"]
]}

Next item in the queue.
Please report the measured IC50 for C[N+](C)(C)CC=O [BETAINE ALDEHYDE CHLORIDE] tested on High affinity choline transporter 1 (Homo sapiens).
15.1 µM (active)

Hey, just so you know, these numbers are from ChEMBL document CHEMBL1201862.
